Item-by-item account of EC90
Test system: Hepatitis C virus
procedureSummary: Antiviral activity against Hepatitis C virus subtype 1b Con1 infected in human Huh7 cells assessed as inhibition of HCV replicon-encoded Renilla luciferase reporter activity after 72 hrs by HCV replicon assay
Format: functional, organism-based, Hepacivirus hominis
appliedConditions: Con1, Huh-7, 72 h

{"columns": ["molecule", "EC90 [nM]"],
 "data": [
  ["COc1nc(N)nc2c1ncn2[C@@H]1O[C@H](COP(=O)(N[C@@H](C)C(=O)OCc2ccc(F)cc2F)N[C@@H](C)C(=O)OCc2ccc(F)cc2F)[C@@H](O)[C@@]1(C)O (mixture of isomers)", 1070],
  ["COc1nc(N)nc2c1ncn2[C@@H]1O[C@H](COP(=O)(N[C@H](C(=O)OCc2ccccc2)C(C)C)N[C@H](C(=O)OCc2ccccc2)C(C)C)[C@@H](O)[C@@]1(C)O (mixture of isomers)", 660],
  ["CCCCOC(=O)[C@H](C)NP(=O)(N[C@@H](C)C(=O)OCCCC)OC[C@H]1O[C@@H](n2cnc3c(OC)nc(N)nc32)[C@](C)(O)[C@@H]1O (mixture of isomers)", 230]
]}
